Target: human JAK1 (aa 850-1154) (Homo sapiens)
Construct: human JAK1 (aa 850-1154); GST (N)
Sequence (P23458 850-1154): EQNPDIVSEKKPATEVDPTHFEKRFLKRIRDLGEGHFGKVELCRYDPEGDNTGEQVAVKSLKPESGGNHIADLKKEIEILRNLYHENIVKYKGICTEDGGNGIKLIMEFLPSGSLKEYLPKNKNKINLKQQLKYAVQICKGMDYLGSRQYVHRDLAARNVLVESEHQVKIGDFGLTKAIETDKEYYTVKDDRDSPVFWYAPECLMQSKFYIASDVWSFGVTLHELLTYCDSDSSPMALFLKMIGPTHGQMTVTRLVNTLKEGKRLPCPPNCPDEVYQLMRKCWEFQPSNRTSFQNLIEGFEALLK
Assay: In vitro JAK kinase assay (TR-FRET), JAK1
Conditions: catalytic domain GST-fusion; ATP 3 μM; poly (GT)-Biotin 60 nM; 30 minutes at room temperature
pIC50: −log10 of the molar value.
observed_property: pIC50

• O=c1[nH]cccc1Nc1ncc2[nH]c(=O)n([C@@H]3CC=Cc4ccccc43)c2n1 [Example 31] = 6.00 to 7.00
• O=c1[nH]cccc1Nc1ncc2[nH]c(=O)n(C3CCCCC3)c2n1 [Example 14] = > 7.00
• O=c1[nH]cccc1Nc1ncc2c(n1)n(C1CCOCC1)c(=O)n2CCO [Example 46] = 6.00 to 7.00
• O=c1[nH]nc(Cl)cc1Nc1ncc2[nH]c(=O)n(C3CCOCC3)c2n1 [Example 54] = 6.00 to 7.00
• C[C@H](c1ncc(F)cn1)n1c(=O)[nH]c2cnc(Nc3cnc[nH]c3=O)nc21 [Example 52] = < 6.00
• CS(=O)(=O)C[C@H]1CC[C@H](n2c(=O)[nH]c3cnc(Nc4ccc[nH]c4=O)nc32)CC1 [Example 39] = 6.00 to 7.00
• O=c1[nH]cccc1Nc1nc(N2CCOCC2)c2[nH]c(=O)n(C3CCOCC3)c2n1 [Example 50] = < 6.00

----------
Biological target: human JAK3 (aa 795-1124) (Homo sapiens, UniProt P52333)
Construct: JAK3 (aa 795-1124); GST (N)
Sequence (P52333 795-1124): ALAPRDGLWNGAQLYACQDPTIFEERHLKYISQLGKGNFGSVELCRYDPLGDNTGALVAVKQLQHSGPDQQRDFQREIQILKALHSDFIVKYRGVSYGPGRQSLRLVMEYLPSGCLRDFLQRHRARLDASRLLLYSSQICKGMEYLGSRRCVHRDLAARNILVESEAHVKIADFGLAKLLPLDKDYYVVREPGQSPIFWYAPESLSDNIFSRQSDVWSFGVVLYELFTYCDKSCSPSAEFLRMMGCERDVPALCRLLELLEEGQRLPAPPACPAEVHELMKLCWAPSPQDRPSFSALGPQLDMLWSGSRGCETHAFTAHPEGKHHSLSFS
Test: In vitro JAK kinase assay (TR-FRET), JAK3
Conditions: catalytic domain GST-fusion; ATP 0.6 μM; poly (GT)-Biotin 140 nM; 30 minutes at room temperature
pIC50: −log10 of the molar value.
observed_property: pIC50

* O=c1[nH]cccc1Nc1ncc2[nH]c(=O)n(C3CCOCC3)c2n1 [Example 1] | > 7.00
* O=c1[nH]cc(C(F)F)cc1Nc1ncc2[nH]c(=O)n(C3CCOCC3)c2n1 [Example 5] | > 7.00
* O=c1[nH]cccc1Nc1ncc2[nH]c(=O)n(C3CCSCC3)c2n1 [Example 12] | > 7.00
* CS(=O)(=O)C[C@H]1CC[C@H](n2c(=O)[nH]c3cnc(Nc4ccc[nH]c4=O)nc32)CC1 [Example 39] | 6.00 to 7.00
* O=c1[nH]cccc1Nc1ncc2[nH]c(=O)n([C@H]3CC[C@@H](n4cncn4)CC3)c2n1 [Example 22] | > 7.00
* O=c1[nH]cccc1Nc1ncc2[nH]c(=O)n([C@@H]3CC=Cc4ccccc43)c2n1 [Example 31] | > 7.00
* O=c1[nH]cccc1Nc1ncc2[nH]c(=O)n(C3CCCCC3)c2n1 [Example 14] | > 7.00
* O=c1[nH]cccc1Nc1nc2c(cc1F)[nH]c(=O)n2C1CCOCC1 [Example 49] | > 7.00
* O=c1[nH]nc(Cl)cc1Nc1ncc2[nH]c(=O)n(C3CCOCC3)c2n1 [Example 54] | > 7.00
